# SYSTEM NAME: T1, ICAM1 on the surface of DU145 cells (human, UniProt P05362 28-532)
# T1 construct: whole, on cells
# T1 sequence (P05362 28-532): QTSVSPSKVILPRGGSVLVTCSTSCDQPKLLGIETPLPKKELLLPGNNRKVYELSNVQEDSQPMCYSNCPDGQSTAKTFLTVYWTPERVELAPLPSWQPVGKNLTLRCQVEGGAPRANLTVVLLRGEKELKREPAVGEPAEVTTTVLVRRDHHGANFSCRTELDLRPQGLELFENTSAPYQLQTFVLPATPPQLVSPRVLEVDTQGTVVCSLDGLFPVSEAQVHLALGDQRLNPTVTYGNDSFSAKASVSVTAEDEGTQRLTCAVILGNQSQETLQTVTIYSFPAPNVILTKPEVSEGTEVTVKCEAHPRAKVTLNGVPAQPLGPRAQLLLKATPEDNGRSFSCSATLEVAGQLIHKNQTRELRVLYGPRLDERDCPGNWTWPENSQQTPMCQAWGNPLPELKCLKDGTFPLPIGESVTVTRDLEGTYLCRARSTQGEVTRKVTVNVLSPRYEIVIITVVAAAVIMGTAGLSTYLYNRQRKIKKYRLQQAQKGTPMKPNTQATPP
# TEST DESCRIPTION: flow cytometry, DU145 cells;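 note: purified antibodies in dilution series bound to cells for 1 h at 4 °C, detected with a fluorescent secondary antibody (1 h, 4 °C, dark), read by flow cytometry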
QUANTITY NAME: pEC50
Scale explanation: pEC50 corresponds to minus log10 of a concentration expressed in moles per litre.

Please review the following examples before continuing.
Prompt: Report pEC50 for 16E4 (antibody, human IgG1, kappa, V domains shown, Rabbit-human chimeric anti-ICAM1: rabbit VH and VL on human IgG1 and kappa constant regions) VH: QSVEESGGRLVTPGTPLTLTCTVSGFSLSSHAMGWVRQAPGKGLQYIGIIGSSGSTYYASWAKGRFTISKTSTTVDLRLTSPTTEDTATYFCVRDPYDSFGDAYRLWGPGTLVTVSS VL: AYDMTQTPASVEVAVGGTVTIKCQASQSIYSYCSWYQQKPGQRPKFLIYDASKLASGVPSRFKGSGSGTEFTLTISGMQSDDAATYYCQQAYSSSNVDNAFGGGTEVVVKR please.
Response: 8.84

Prompt: Param item = 8E5 (antibody, human IgG1, kappa, V domains shown, Rabbit-human chimeric anti-ICAM1: rabbit VH and VL on human IgG1 and kappa constant regions) VH: QSLEESGGRLVTPGTPLTLTCTVSGFSLSNYAMNWVRQAPGKGLEWIGYISTRGSAYYASWAKGRFTISKTSTTVDLKMTSPTTEDTATYFCARGDLVGGGYIRGSFDPWGPGTLVTVSS VL: AQVLTQTPSPVSAAVGGTVTINCQSSQSVVSDKLLSWFQQKPGQPPKLLIYGASTLASGVPSRFKGSGSGTQFTLTISDVQSDDAATYYCAGAYSTDSDIRAFGGGTEVVVKR ; retrieve measured pEC50.
Response: 9.91

Prompt: Recorded pEC50 for 8B12 (antibody, human IgG1, kappa, V domains shown, Rabbit-human chimeric anti-ICAM1: rabbit VH and VL on human IgG1 and kappa constant regions) VH: QSVEESGGGLVKPGGTLTLTCTVSGFSLSTHAMGWVRQAPGKGLEYIGIIGSSDRTYYASWAKGRFTISKTSTTVDLKITSPTTEDTATYFCVRDPYDSFDDGYRLWGPGTLVTVSS VL: AYDMTQTPASVEVAVGGTVTIKCQASQSIYSYLSWYQQKPGQRPKFLIYDASKVASGVPSRFKGSGSGTEFTLTISAVQSDDAATYYCQQAYSSSNVDNAFGGGTEVMVKR , please?
Response: 8.99

Prompt: pEC50 lookup needed for 14H1 (antibody, human IgG1, kappa, V domains shown, Rabbit-human chimeric anti-ICAM1: rabbit VH and VL on human IgG1 and kappa constant regions) VH: QSVEESGGRLVTPGTPLTLTCTVSGFSLSNYYMSWVRQAPGKGLEWIGIISDSGSTYYASWAKGRFTISKTSTTVDLSITSPTTEDTATYFCARDWSYDSTSGYYYYDMDLWGPGTLVTVSA VL: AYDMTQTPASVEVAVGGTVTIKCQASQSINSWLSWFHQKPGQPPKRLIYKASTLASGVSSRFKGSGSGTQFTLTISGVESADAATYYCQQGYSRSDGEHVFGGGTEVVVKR , thanks.
Response: 9.23

Prompt: Which pEC50 is reported for this binder? 14B3 (antibody, human IgG1, kappa, V domains shown, Rabbit-human chimeric anti-ICAM1: rabbit VH and VL on human IgG1 and kappa constant regions) VH: QSLEESGGDLVKPGASLTLTCTASGFSSSSGYYICWVRQAPGKGLEWIACIGAGSGAAYYASWAKGRFTMSKTSSTTVTLQMTSLTAADTATYFCARGGFVVGGGYGGYCFNLWGPGTLVTVSS VL: AQVLTQTASSVSATVGGTVTISCQSSESVDVNNLAWYQQKPGQPPKLLIYSASTLASGVPSRFKGSGSGTQFTLTVSDLESADAATYYCAGGYSGNIFAFGGGTAVVVKR
Response: 8.22

Prompt: Which value of pEC50 has been reported for 10B8 (antibody, human IgG1, kappa, V domains shown, Rabbit-human chimeric anti-ICAM1: rabbit VH and VL on human IgG1 and kappa constant regions) VH: QSLEESGGRLVTPGGSLTLTCTVSGFSLSSYGMSWVRQAPGKGLEYIGWISFSGSAYYANWAKGRFTISKTSTTVDLKITSPTTEDTATYFCARGGDYGGSTYILNLWGPGTLVTVSS VL: AFELTQTPSSVEAAVGGTVTIKCQASESINSYLSWYQQKPGQPPKLLIYAASTLASGVSSRFKGSGSGTEFTLTISDLESADAATYYCQSYSGTISTSGGAFGGGTEVVVKR in the records?
Response: 9.60

Prompt: Need pEC50 of Anti-ICAM1 G12 (antibody, human IgG1, lambda, V domains shown, Human IgG1 with a lambda light chain; also called anti-ICAM1 clone G12) VH: QVQLQESGGGLVQPGGSLRLSCAASGFTFSSYAMSWVRQAPGKGLEWVSAISGSGGSTYYADSVKGRFTISRDNSKNTLYLQMSSLRAEDTAFYYCANSAYTGGWYDYWGHGTLVTVSS VL: ASELTQDPAVSVALGQTVKITCQGDSLRTYYASWYQQRPGQAPVLVIYGENSRPSGIPDRFSGSSSGNTASLTITGAQAEDEADYYCNSRDSSGNHLRVFGGGTKLTVLG , thanks.
Response: 9.59

Prompt: What does the data say about its pEC50? Entry: 3D8 (antibody, human IgG1, kappa, V domains shown, Rabbit-human chimeric anti-ICAM1: rabbit VH and VL on human IgG1 and kappa constant regions) VH: QSLEESGGDLVKPGASLTLTCTASGFSFSSSYWMCWVRQAPGKGLEWIACIDGGSAGYNYYATWAKGRFTISKTSSTTVTLQMTSLTAADRATYFCARGPGSSYNLWGPGTLVTVSS VL: DIVMTQTPASVEAAVGGTVTIKCQASQSISSYLSWYQQKPGQPPKLLIYRASTLASGVPSRFKGSGSGTEFTLTISDLESADAATYYCQSYVFGSSRSYDNAFGGGTEVVVKR
Response: 9.68

Continuing:
Prompt: Data request, read-out pEC50, for 11F2 (antibody, human IgG1, kappa, V domains shown, Rabbit-human chimeric anti-ICAM1: rabbit VH and VL on human IgG1 and kappa constant regions) VH: QSVEESGGGLVKPGGTLTLTCTVSGFSLSSHAMGWVRQAPGKGLEYIGIIGSSDRTYYASWAKGRFTISKTSTTVDLKITSPTTEDTATYFCVRDPYDSYDDGYRLWGPGTLVTVSS VL: AYDMTQTPASVEVAVGGTVTIKCQASQSIYRYLSWYQKKPGQRPKFLIYDASKLASGVPSRFEGSGSGTEFTLTISGAQSDDAATYYCQQAYSSGSIDNAFGGGTEVVVKR
Response: 8.88

Prompt: Requested field: pEC50. Item: 5B12 (antibody, human IgG1, kappa, V domains shown, Rabbit-human chimeric anti-ICAM1: rabbit VH and VL on human IgG1 and kappa constant regions) VH: QSLEESGGRLVTPGTPLTLTCTVSGFSLSSYGMSWVRQAPGKGLEYIGWISFSGSAYYANWAKGRFTISKTSTTVDLKITSPTTEDTATYFCARGGDYGGSTYILNLWGPGTLVTVSS VL: AFELTQTPSSVEAAVGGTVTIKCQASESIDSYLSWYQQKPGQPPKLLIYAASTLASGVSSRFKGSGSGTEFTLTISDLESADAATYYCQSYSGTITTSGGAFGGGTEVVVKR
Response: 9.95
